Data credit: ChEMBL document CHEMBL5058577

System: Fibroblast
Run Description: Multiplex assay against human fibroblast
Format: toxicity, cell-based
Measurement Conditions: 24 h, 1 µM, compound concentration 1 uM, replicate 1
Quantity Kind: Population Hoechst High Intensity Objects (%)

INSERT INTO assay_data (molecule, unit_name, obs_value) VALUES
  ('C[C@H]1[C@H]2CC[C@H]3[C@@H]4CC=C5C[C@@H](N(C)C)CC[C@]5(C)[C@H]4CC[C@]23CN1C', '%', 2),
  ('CC[C@H]1OC(=O)[C@H](C)[C@@H](O[C@H]2C[C@@](C)(OC)[C@@H](O)[C@H](C)O2)[C@H](C)[C@@H](O[C@@H]2O[C@H](C)C[C@H](N(C)C)[C@H]2O)[C@@]2(C)CC(C)=C(O2)[C@H](C)[C@@H](O)[C@]1(C)O', '%', 4),
  ('CN1CCN(c2nc3cc(C(F)(F)F)ccc3n3cccc23)CC1.O=C(O)/C=C\C(=O)O.O=C(O)/C=C\C(=O)O', '%', 1),
  ('C[C@H](NC(=O)c1c(C(F)F)nn(C)c1Oc1cccc(C(F)(F)F)c1)c1ccc(C(=O)O)cc1', '%', 5),
  ('C[C@@H]1C[C@H]2[C@@H]3CCC4=CC(=O)C=C[C@]4(C)[C@@]3(F)[C@@H](O)C[C@]2(C)[C@@]1(O)C(=O)CO', '%', 5),
  ('Cc1ccc(C(C)(O)c2nc3ccccc3s2)c(C)c1 (configuration not stated)', '%', 0),
  ('CCNC1(C(N)=O)CCN(c2ncnc3c2nc(-c2ccccc2Cl)n3-c2ccc(Cl)cc2)CC1', '%', 4);

---

Tested on: Fibroblast
Run Description: Multiplex assay against human fibroblast
Type: toxicity, cell-based
Measurement Conditions: 24 h, 10 µM, compound concentration 10 uM, replicate 2
Threshold rule: Population Mitotic Cells (%) greater than or equal to 60% is Y; below that, N.

INSERT INTO measurements (compound, group_label) VALUES
  ('C[C@@H]1C[C@H]2[C@@H]3CCC4=CC(=O)C=C[C@]4(C)[C@@]3(F)[C@@H](O)C[C@]2(C)[C@@]1(O)C(=O)CO', 'Y'),
  ('O=C(O)Cc1ccccc1Nc1c(Cl)cccc1Cl', 'N'),
  ('O=S(=O)(c1ccccc1)c1cnc2c(N3CCNCC3)cccc2c1 [INTEPIRDINE]', 'N'),
  ('C[C@H]1[C@H]2CC[C@H]3[C@@H]4CC=C5C[C@@H](N(C)C)CC[C@]5(C)[C@H]4CC[C@]23CN1C', 'Y'),
  ('Cc1ccc(F)cc1C(=O)Nc1ccc(C(=O)N2Cc3cccn3Cc3ccccc32)c(Cl)c1', 'N'),
  ('c1cc(OCCCN2CCCCC2)ccc1CN1CCCCC1', 'N'),
  ('O=C(NCCO)c1cccc(-c2cc(Nc3ccc(OC(F)(F)F)cc3)ncn2)c1', 'N');

---

System: Fibroblast
Run Description: Multiplex assay against human fibroblast
Assay type: toxicity, cell-based
Measurement Conditions: 24 h, 10 µM, compound concentration 10 uM, replicate 2
In this section, each of the molecules is paired with its reported Population Hoechst High Intensity Objects (%).
Quantity Kind: Population Hoechst High Intensity Objects (%)

INSERT INTO assay_data (molecule, obs_value) VALUES
  ('CCNC1(C(N)=O)CCN(c2ncnc3c2nc(-c2ccccc2Cl)n3-c2ccc(Cl)cc2)CC1', 5),
  ('Cc1ccc(F)cc1C(=O)Nc1ccc(C(=O)N2Cc3cccn3Cc3ccccc32)c(Cl)c1', 5),
  ('N[C@@]1(C(=O)O)CO[C@H]2[C@H](C(=O)O)[C@H]21', 6),
  ('COc1c(C)cc(NC(=O)c2nn(Cc3ccc(F)cc3)c3c2CN(C(=O)c2ccc[nH]2)C[C@]3(C)C(N)=O)cc1C', 4),
  ('Cc1ccc(C(C)(O)c2nc3ccccc3s2)c(C)c1 (centres undefined)', 6),
  ('Cc1ccc(/C(=C\CN2CCCC2)c2ccccn2)cc1', 2),
  ('CCCn1c(=O)c2[nH]c(C3CCCC3)nc2n(CCC)c1=O', 6),
  ('Cc1ccccc1C(=O)Nc1ccc(C(=O)N2CCCC(N(C)C)c3ccccc32)cc1.Cl (centres undefined)', 4),
  ('c1cc(OCCCN2CCCCC2)ccc1CN1CCCCC1', 5),
  ('O=S(=O)(c1ccccc1)c1cnc2c(N3CCNCC3)cccc2c1 [INTEPIRDINE]', 4),
  ('CN(C)CCCc1cc(C(=O)Nc2ccc(-c3ccncc3)cc2)ccc1O.Cl.Cl', 4),
  ('O=C1COc2nccc(-c3ccccc3F)c2CN1Cc1cc(C(F)(F)F)cc(C(F)(F)F)c1', 6),
  ('CN1CCN(c2nc3cc(C(F)(F)F)ccc3n3cccc23)CC1.O=C(O)/C=C\C(=O)O.O=C(O)/C=C\C(=O)O', 1),
  ('Cl.Clc1ccc2nsnc2c1NC1=NCCN1 [TIZANIDINE HYDROCHLORIDE]', 2),
  ('O=C(NCC(=O)N1CC[C@H](N[C@H]2CC[C@@](O)(c3ccc(-c4ncccn4)cn3)CC2)C1)c1cccc(C(F)(F)F)c1', 2),
  ('CSCC[C@H](NC=O)C(=O)N[C@@H](CC(C)C)C(=O)N[C@@H](Cc1ccccc1)C(=O)O', 32),
  ('CC(=O)NCCc1c(Cc2ccccc2)[nH]c2ccccc12', 3),
  ('CN(C)c1ccnc2sc3c(=O)n(N4CCCCCC4)cnc3c12', 8),
  ('COc1cc(C(=O)N(CCCc2ccccc2)Cc2ccc(CC(=O)O)cc2)cc(OC)c1C', 4),
  ('C[C@H]1[C@H]2CC[C@H]3[C@@H]4CC=C5C[C@@H](N(C)C)CC[C@]5(C)[C@H]4CC[C@]23CN1C', 2),
  ('CC[C@H]1OC(=O)[C@H](C)[C@@H](O[C@H]2C[C@@](C)(OC)[C@@H](O)[C@H](C)O2)[C@H](C)[C@@H](O[C@@H]2O[C@H](C)C[C@H](N(C)C)[C@H]2O)[C@@]2(C)CC(C)=C(O2)[C@H](C)[C@@H](O)[C@]1(C)O', 1),
  ('CSc1ccccc1N1CCN(CCCCCC(=O)NC2CCCc3ccccc32)CC1.Cl (centres undefined)', 3),
  ('CCCN1CCC[C@@H]2Cc3n[nH]cc3C[C@H]21.Cl [QUINPIROLE HYDROCHLORIDE]', 1),
  ('N#Cc1c(N)nc(SCc2csc(-c3ccc(Cl)cc3)n2)c(C#N)c1-c1ccc(OCCO)cc1', 6),
  ('COc1cc(NC(=O)CCN2CCC(OC(=O)Nc3ccccc3-c3ccccc3)CC2)c(Cl)cc1CNC[C@H](O)c1ccc(O)c2[nH]c(=O)ccc12', 1),
  ('C[C@@H]1C[C@H]2[C@@H]3CCC4=CC(=O)C=C[C@]4(C)[C@@]3(F)[C@@H](O)C[C@]2(C)[C@@]1(O)C(=O)CO', 6),
  ('CN1CCN2c3ncccc3Cc3ccccc3C2C1 (centres undefined)', 5),
  ('Oc1c(CN2CCN(c3ccccn3)CC2)cc(Cl)c2cccnc12', 2),
  ('COc1ccc2c(c1)C(C(=O)N(Cc1ccc(N(C)C)cc1)c1ccc(C(C)C)cc1)CCC2.Cl (centres undefined)', 2),
  ('CCCC(CCC)C(=O)O', 3),
  ('Cc1nc2ccc(Oc3ccc(F)cc3)cc2c(=O)n1C[C@H]1CCCN(C(C)C)C1.Cl', 6),
  ('CCOc1c2c(c(OCC)c3ncccc13)CN(c1ccc(CS(=O)(=O)NC(=O)Cc3ccccc3OC)cc1C)C2=O', 4),
  ('CC(C)(C)c1ccc(S(=O)(=O)Nc2ccc(Cl)cc2C(=O)c2cc[n+]([O-])cc2)cc1', 0),
  ('O=C(O)c1cc2ccccc2c(Cc2c(O)c(C(=O)O)cc3ccccc23)c1O', 5);

---

Test system: U2OS
Run Description: Multiplex assay against U2OS
Type: toxicity, cell-based
Measurement Conditions: human, 48 h, 10 µM, compound concentration 10 uM, replicate 2
Quantity Kind: Population Pyknosed Nuclei (%)

INSERT INTO assay_data (compound, quantity_kind, obs_value) VALUES
  ('C[C@H](NC(=O)c1c(C(F)F)nn(C)c1Oc1cccc(C(F)(F)F)c1)c1ccc(C(=O)O)cc1 [PALUPIPRANT]', 'Population Pyknosed Nuclei (%)', 6),
  ('CCNC1(C(N)=O)CCN(c2ncnc3c2nc(-c2ccccc2Cl)n3-c2ccc(Cl)cc2)CC1 [OTENABANT]', 'Population Pyknosed Nuclei (%)', 24),
  ('CNC[C@H](O)c1ccc(O)c(O)c1 [EPINEPHRINE]', 'Population Pyknosed Nuclei (%)', 23),
  ('COc1cc(C(=O)N(CCCc2ccccc2)Cc2ccc(CC(=O)O)cc2)cc(OC)c1C', 'Population Pyknosed Nuclei (%)', 13),
  ('COc1c(C)cc(NC(=O)c2nn(Cc3ccc(F)cc3)c3c2CN(C(=O)c2ccc[nH]2)C[C@]3(C)C(N)=O)cc1C', 'Population Pyknosed Nuclei (%)', 29),
  ('Oc1c(CN2CCN(c3ccccn3)CC2)cc(Cl)c2cccnc12', 'Population Pyknosed Nuclei (%)', 19),
  ('N#Cc1c(N)nc(SCc2csc(-c3ccc(Cl)cc3)n2)c(C#N)c1-c1ccc(OCCO)cc1 [CAPADENOSON]', 'Population Pyknosed Nuclei (%)', 20),
  ('CC(C)(C)c1ccc(S(=O)(=O)Nc2ccc(Cl)cc2C(=O)c2cc[n+]([O-])cc2)cc1 [VERCIRNON]', 'Population Pyknosed Nuclei (%)', 8);
